B1: Hairpin Ribozyme (parent)
chain: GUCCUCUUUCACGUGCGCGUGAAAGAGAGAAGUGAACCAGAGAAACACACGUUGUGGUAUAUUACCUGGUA

Variants of: B1
EXPERIMENT_DESCRIPTION: self-cleavage, relative activity (ratio to wild type); higher = more cleavage; co-transcriptional
Parameter: self-cleavage. Scope: all listed entries.
QUANTITY_KIND: self-cleavage

>  <SEQUENCE_VARIANT>
C38G U58G

>  <QUANTITY_KIND>
self-cleavage

>  <RESULT>
0.175

$$$$
>  <SEQUENCE_VARIANT>
U20C A26C

>  <QUANTITY_KIND>
self-cleavage

>  <RESULT>
0.329

$$$$
>  <SEQUENCE_VARIANT>
G42U G51C

>  <QUANTITY_KIND>
self-cleavage

>  <RESULT>
0.392

$$$$
>  <SEQUENCE_VARIANT>
C38A C50G

>  <QUANTITY_KIND>
self-cleavage

>  <RESULT>
0.089

$$$$
>  <SEQUENCE_VARIANT>
A41C A45U

>  <QUANTITY_KIND>
self-cleavage

>  <RESULT>
0.202

$$$$
>  <SEQUENCE_VARIANT>
G51C C66A

>  <QUANTITY_KIND>
self-cleavage

>  <RESULT>
0.184

$$$$
>  <SEQUENCE_VARIANT>
C12A U53G

>  <QUANTITY_KIND>
self-cleavage

>  <RESULT>
0.587

$$$$
>  <SEQUENCE_VARIANT>
U20A A47G

>  <QUANTITY_KIND>
self-cleavage

>  <RESULT>
0.185

$$$$
>  <SEQUENCE_VARIANT>
C16G A61C

>  <QUANTITY_KIND>
self-cleavage

>  <RESULT>
0.2

$$$$
>  <SEQUENCE_VARIANT>
U2G C38U

>  <QUANTITY_KIND>
self-cleavage

>  <RESULT>
0.24

$$$$
>  <SEQUENCE_VARIANT>
C10G A41C

>  <QUANTITY_KIND>
self-cleavage

>  <RESULT>
0.777

$$$$
